target: human vasopressin V1a receptor (Homo sapiens); assay: Functional assay on human vasopressin V1a receptor expressing cell line (intracellular Ca2+ fluorescence); assay type: cell-based; settings: 1321N1 cells, (Arg8)-vasopressin at EC80; read-out: IC50 (nM) on hV1a cell line
Sequence (P37288 whole entry): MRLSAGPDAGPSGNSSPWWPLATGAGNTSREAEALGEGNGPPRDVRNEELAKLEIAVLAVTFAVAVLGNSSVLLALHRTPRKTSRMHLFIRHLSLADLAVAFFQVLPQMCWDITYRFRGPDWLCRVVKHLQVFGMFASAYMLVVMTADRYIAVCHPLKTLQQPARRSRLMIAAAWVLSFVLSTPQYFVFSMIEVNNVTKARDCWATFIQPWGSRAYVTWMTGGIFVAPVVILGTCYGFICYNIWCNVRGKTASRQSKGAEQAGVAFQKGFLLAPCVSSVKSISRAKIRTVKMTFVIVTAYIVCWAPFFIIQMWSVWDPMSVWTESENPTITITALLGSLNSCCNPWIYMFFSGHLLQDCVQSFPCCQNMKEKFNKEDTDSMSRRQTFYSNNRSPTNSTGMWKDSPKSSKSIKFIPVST
value kind: IC50 (nM)
// units = nM; emit number, no label

COC1Cc2cc(Cl)ccc2-n2c(nnc2C2CCN(Cc3cccnc3)C2)C1 (stereo not drawn) [Example 184] : 25
COC1Cc2cc(Cl)ccc2-n2c(nnc2N2CCC3(CC2)OCc2ccccc23)C1 (stereo not drawn) [Example 191] : 2.9
CCC[C@]1(OC)CC[C@H](c2nnc3n2-c2ccc(Cl)cc2CC2(C3)OCCO2)CC1 [Example 242] : 1.8
CC(C)NC1Cc2cc(F)ccc2-n2c(nnc2[C@H]2CC[C@H](Oc3ccccn3)CC2)C1 (stereo partly drawn) [Example 146] : 78
NC1Cc2cc(Cl)ccc2-n2c(nnc2[C@H]2CC[C@H](C(F)(F)F)CC2)C1 (stereo partly drawn) [Example 43] : 210

For the molecule shown here, N#CCC(=O)OC1Cc2cc(Cl)ccc2-n2c(nnc2[C@H]2CC[C@H](Oc3ccccn3)CC2)C1 (stereo partly drawn) [Example 215] , give the reported IC50. 3.7

Please look up its IC50: FC1Cc2cc(Cl)ccc2-n2c(nnc2[C@H]2CC[C@H](Oc3ccccn3)CC2)C1 (stereo partly drawn) [Example 206] 0.9

Requested field: IC50. Item: CN(C1Cc2cc(Cl)ccc2-n2c(nnc2[C@H]2CC[C@H](Oc3ccccn3)CC2)C1)S(C)(=O)=O (stereo partly drawn) [Example 19] 1.8
